List of pIC50 values.
Molecular target: FGFR1 (Homo sapiens (Human), UniProt P11362)
Sequence (P11362 22-822): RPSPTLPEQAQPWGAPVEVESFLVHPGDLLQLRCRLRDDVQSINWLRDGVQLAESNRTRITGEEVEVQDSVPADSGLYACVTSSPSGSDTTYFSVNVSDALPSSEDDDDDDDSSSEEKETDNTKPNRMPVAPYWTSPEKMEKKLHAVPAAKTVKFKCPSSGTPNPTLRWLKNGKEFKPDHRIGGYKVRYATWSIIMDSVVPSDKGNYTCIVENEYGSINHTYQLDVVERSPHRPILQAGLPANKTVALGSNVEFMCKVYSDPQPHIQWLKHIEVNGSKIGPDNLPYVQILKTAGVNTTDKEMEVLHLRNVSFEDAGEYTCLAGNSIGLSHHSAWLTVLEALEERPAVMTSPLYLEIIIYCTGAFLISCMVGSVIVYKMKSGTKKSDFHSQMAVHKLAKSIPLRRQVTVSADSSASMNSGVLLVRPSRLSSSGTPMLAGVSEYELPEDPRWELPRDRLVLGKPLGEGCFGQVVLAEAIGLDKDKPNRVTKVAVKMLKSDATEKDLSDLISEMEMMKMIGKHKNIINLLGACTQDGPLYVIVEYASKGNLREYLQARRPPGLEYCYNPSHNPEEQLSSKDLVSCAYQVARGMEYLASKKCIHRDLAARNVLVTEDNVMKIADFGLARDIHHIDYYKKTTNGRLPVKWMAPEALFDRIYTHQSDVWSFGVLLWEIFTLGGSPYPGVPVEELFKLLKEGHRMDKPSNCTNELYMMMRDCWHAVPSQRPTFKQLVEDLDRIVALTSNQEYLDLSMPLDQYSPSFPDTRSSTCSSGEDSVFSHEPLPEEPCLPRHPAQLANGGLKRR
Test: FGFR Enzymatic Assay (FRET peptide phosphorylation), FGFR1
Details: read-out: FGFR1 IC50; pre-incubated for 5 to 10 minutes
pIC50: −log10 of the molar value.

Here are 3 molecules together with their reported answers.
COc1cc(OC)c(F)c(N2Cc3cnc(-c4cncc(C(=O)N5CCOCC5)c4)cc3C3(CC3)C2=O)c1F [Example 13]: < 6.70
COc1cc(OC)c(F)c(N2Cc3cnc(-c4cncc(-n5ccnc5)c4)cc3C3(CC3)C2=O)c1F [Example 12]: < 6.70
COc1cc(OC)c(F)c(N2Cc3cnc(-c4cncc(C#N)c4)cc3C3(CC3)C2=O)c1F [Example 8]: < 6.70

The reported pIC50 of the molecule COc1cc(OC)c(F)c(N2Cc3cnc(-c4cn(C)nc4C)cc3N(Cc3cnn(CC(F)F)c3)C2=O)c1F [Example 128] was > 8.00

# pIC50 (molecule: COc1cc(OC)c(F)c(N2Cc3cnc(-c4cncc(N5CCOCC5)c4)cc3C3(CC3)C2=O)c1F [Example 6] ) is < 6.70

Query COc1cc(OC)c(F)c(N2Cc3cnc(-c4cc(N)c(F)cc4C)cc3C3(CC3)C2=O)c1F [Example 2] yields pIC50 of < 6.70

Measured pIC50, COc1cc(OC)c(F)c(N2Cc3cnc(-c4cncc(Cl)c4)cc3C3(CC3)C2=O)c1F [Example 11] : < 6.70
